Source listed as PubChem BioAssay.

TARGET_OR_SYSTEM: NADPH oxidase 4 (Homo sapiens)
PROTOCOL: compounds shifting NOX4 Amplex Red fluorescence – cell-based, HEK293-NOX4, tetracycline-induced, NOX inhibitor project, primary screen (AID 1160)
MEASUREMENT_SETUP: HEK293-NOX4, Amplex Red H2O2 fluorescence, 45 min; higher = more signal, called active from +8 up or from −8 down
REPORTED_METRIC: z-score

>  <COMPOUND>
CCCCC(O)C1C=CC2C(=O)N(c3ccccc3)C(=O)C2N1Nc1ccccc1 (centres undefined)

>  <TARGET_OR_SYSTEM>
NADPH oxidase 4 (Homo sapiens)

>  <REPORTED_METRIC>
z-score

>  <MEASUREMENT>
-2.93

$$$$
>  <COMPOUND>
COCCOC(=O)N1C(=O)[C@@]2(c3cc(C#CCCO)ccc31)[C@H](c1ccccc1OCCO)N1[C@H](c3ccccc3)[C@H](c3ccccc3)OC(=O)[C@H]1[C@@H]2C(N)=O

>  <TARGET_OR_SYSTEM>
NADPH oxidase 4 (Homo sapiens)

>  <REPORTED_METRIC>
z-score

>  <MEASUREMENT>
0.552

$$$$
>  <COMPOUND>
N#Cc1ccc(-c2cccc(=O)o2)cc1

>  <TARGET_OR_SYSTEM>
NADPH oxidase 4 (Homo sapiens)

>  <REPORTED_METRIC>
z-score

>  <MEASUREMENT>
-1.72

$$$$
>  <COMPOUND>
COC(=O)[C@@]1(Cc2ccc(OC)cc2)[C@H]2c3cc(C(=O)N(C)C)[nH]c3C[C@H]2CN1C(=O)c1ccccc1

>  <TARGET_OR_SYSTEM>
NADPH oxidase 4 (Homo sapiens)

>  <REPORTED_METRIC>
z-score

>  <MEASUREMENT>
0.602

$$$$
>  <COMPOUND>
COCCOC(=O)N1C(=O)[C@@]2(c3cc(C#CCCO)ccc31)[C@H](C(N)=O)[C@H]1C(=O)O[C@H](c3ccccc3)[C@H](c3ccccc3)N1[C@@H]2c1ccccc1OCCO

>  <TARGET_OR_SYSTEM>
NADPH oxidase 4 (Homo sapiens)

>  <REPORTED_METRIC>
z-score

>  <MEASUREMENT>
0.755

$$$$
>  <COMPOUND>
COCCCNC(=O)[C@@]1(CCC(=O)OC(C)(C)C)COC(c2ccc(OCCCO)cc2)=N1

>  <TARGET_OR_SYSTEM>
NADPH oxidase 4 (Homo sapiens)

>  <REPORTED_METRIC>
z-score

>  <MEASUREMENT>
0.195

$$$$
>  <COMPOUND>
COC(=O)[C@@]1(Cc2ccccc2)[C@H]2c3cc(C(=O)N(C)C)n(CCSC(=N)N)c3C[C@H]2CN1C(=O)c1ccccc1

>  <TARGET_OR_SYSTEM>
NADPH oxidase 4 (Homo sapiens)

>  <REPORTED_METRIC>
z-score

>  <MEASUREMENT>
-0.357

$$$$
>  <COMPOUND>
O=C(NC1CC1)[C@@H]1c2ccccc2C(=O)N(Cc2cc(C(F)(F)F)cc(C(F)(F)F)c2)[C@H]1c1ccc(CO)cc1

>  <TARGET_OR_SYSTEM>
NADPH oxidase 4 (Homo sapiens)

>  <REPORTED_METRIC>
z-score

>  <MEASUREMENT>
-1.17

$$$$
>  <COMPOUND>
CC1CC/C=C\[C@H]2OC34C=CCN(c5ccc(Cl)cc5)C(=O)[C@H]3N(CCCCCCO)C(=O)[C@]4(C)C2C(=O)O1 (some centres undefined)

>  <TARGET_OR_SYSTEM>
NADPH oxidase 4 (Homo sapiens)

>  <REPORTED_METRIC>
z-score

>  <MEASUREMENT>
0.37

$$$$
>  <COMPOUND>
CCOC(=O)C1=CC[C@@H](c2ccc(OC)cc2)N(S(=O)(=O)c2ccc(C)cc2)[C@H]1c1ccc(C)cc1

>  <TARGET_OR_SYSTEM>
NADPH oxidase 4 (Homo sapiens)

>  <REPORTED_METRIC>
z-score

>  <MEASUREMENT>
-0.627

$$$$
>  <COMPOUND>
CCCCC(O)C1C=CC2C(=O)N(c3ccccc3)C(=O)C2N1Nc1ccc(C#N)cc1 (centres undefined)

>  <TARGET_OR_SYSTEM>
NADPH oxidase 4 (Homo sapiens)

>  <REPORTED_METRIC>
z-score

>  <MEASUREMENT>
-4.26

$$$$
>  <COMPOUND>
COCCOC(=O)N1C(=O)[C@@]2(c3cc(C#CCC(C(=O)OC)C(=O)OC)ccc31)[C@H](C(=O)Nc1nc3ccccc3s1)[C@H]1C(=O)O[C@H](c3ccccc3)[C@H](c3ccccc3)N1[C@@H]2c1ccc(O)cc1

>  <TARGET_OR_SYSTEM>
NADPH oxidase 4 (Homo sapiens)

>  <REPORTED_METRIC>
z-score

>  <MEASUREMENT>
-1.11

$$$$
>  <COMPOUND>
O=C(NC1CC1)[C@@H]1c2ccccc2C(=O)N(Cc2ccc(OC(F)(F)F)cc2)[C@H]1c1ccc(CO)cc1

>  <TARGET_OR_SYSTEM>
NADPH oxidase 4 (Homo sapiens)

>  <REPORTED_METRIC>
z-score

>  <MEASUREMENT>
-0.866

$$$$
>  <COMPOUND>
COc1ccc(C(=O)Nc2ccc3c(c2)[C@@]2(O[C@H](CCO)[C@@H]([Si](C)(C)c4ccc(OC)cc4)[C@@H]2C)C(=O)N3Cc2ccccc2)cc1

>  <TARGET_OR_SYSTEM>
NADPH oxidase 4 (Homo sapiens)

>  <REPORTED_METRIC>
z-score

>  <MEASUREMENT>
-1.62

$$$$
>  <COMPOUND>
COC(=O)[C@@]1(Cc2ccccc2)[C@H]2c3cc(C(=O)N4CCCC4)n(Cc4ccc(OC)c(OC)c4)c3C[C@H]2CN1C(=O)c1ccccc1

>  <TARGET_OR_SYSTEM>
NADPH oxidase 4 (Homo sapiens)

>  <REPORTED_METRIC>
z-score

>  <MEASUREMENT>
0.104

$$$$
>  <COMPOUND>
C=C(COC)/C(=C/C[C@@H](OC(C)=O)c1ccccc1OCCO)c1cnc2ccccc2c1

>  <TARGET_OR_SYSTEM>
NADPH oxidase 4 (Homo sapiens)

>  <REPORTED_METRIC>
z-score

>  <MEASUREMENT>
-1.04

$$$$
>  <COMPOUND>
C[C@@H]1ON(c2ccc(I)cc2)[C@H](c2cccc(NC(=O)OCC3c4ccccc4-c4ccccc43)c2)[C@H]1C(=O)N1C(=O)OC[C@H]1Cc1ccccc1

>  <TARGET_OR_SYSTEM>
NADPH oxidase 4 (Homo sapiens)

>  <REPORTED_METRIC>
z-score

>  <MEASUREMENT>
-2.58

$$$$
>  <COMPOUND>
O=C1[C@H]2C=C(I)[C@H](C[C@@H]2c2ccccc2)[C@@]12CO2

>  <TARGET_OR_SYSTEM>
NADPH oxidase 4 (Homo sapiens)

>  <REPORTED_METRIC>
z-score

>  <MEASUREMENT>
0.265

$$$$
>  <COMPOUND>
COC(=O)C(CC#Cc1ccc2c(c1)[C@]1(C(=O)N2)[C@H](c2ccc(OCCO)cc2)N2[C@H](c3ccccc3)[C@H](c3ccccc3)OC(=O)[C@H]2[C@@H]1C(=O)N1CCCCCCC1)C(=O)OC

>  <TARGET_OR_SYSTEM>
NADPH oxidase 4 (Homo sapiens)

>  <REPORTED_METRIC>
z-score

>  <MEASUREMENT>
0.196

$$$$
